These entries and their values trace back to patent US10882860B2.

ASSAY OVERVIEW: Solubility of the starting solid by the gravimetric method
Format: physicochemical
TEST SETTINGS: organic solvent or mixture, thermodynamic from solid; MIBK; RT; read-out: Solubility at RT
RECORDED METRIC: solubility (µg/mL)

# SMILES INPUT, RECORDED METRIC, EXPERIMENTAL RESULT
data = [
    ("CC(C)CC(=O)Nc1cncc(-c2ccc3[nH]nc(-c4nc5c(-c6cccc(F)c6)cncc5[nH]4)c3c2)c1", "solubility", 1000),
]

* * *

ASSAY OVERVIEW: Rat pharmacokinetics after IA injection (plasma, knee joint)
Format: in vivo, Sprague Dawley rats
TEST SETTINGS: Sprague Dawley, rat, bone, other: intra-articular injection; rats, single IA, 1 μg/knee, Day 90; read-out: Formula (I) concentration, Bone

# MOLECULE, concentration at 90 day / ng/g
rows = [
    ("CC(C)CC(=O)Nc1cncc(-c2ccc3[nH]nc(-c4nc5c(-c6cccc(F)c6)cncc5[nH]4)c3c2)c1 [compound of Formula (I)]", 44.4),
]

* * *

ASSAY OVERVIEW: Dog pharmacokinetics after IA injection (plasma, cartilage, bone, synovial fluid)
Assay type: in vivo, beagle dogs
TEST SETTINGS: dog; 3 μg/knee; Day 179
RECORDED METRIC: total amount recovered from cartilage and bone tissues from the tibia (ng)

# COMPOUND, EXPERIMENTAL RESULT
data = [
    ("CC(C)CC(=O)Nc1cncc(-c2ccc3[nH]nc(-c4nc5c(-c6cccc(F)c6)cncc5[nH]4)c3c2)c1 [compound of Formula (I)]", 79),
]

* * *

ASSAY OVERVIEW: Rat pharmacokinetics after IA injection (plasma, knee joint)
Assay type: in vivo, Sprague Dawley rats
TEST SETTINGS: Sprague Dawley, rat, cartilage, other: intra-articular; rats, single IA, 1 μg/knee, Day 180; read-out: Formula (I) concentration, Cartilage

# SMILES INPUT, concentration at 180 day (ng/g)
records = [
    ("CC(C)CC(=O)Nc1cncc(-c2ccc3[nH]nc(-c4nc5c(-c6cccc(F)c6)cncc5[nH]4)c3c2)c1", 201),
]

* * *

ASSAY OVERVIEW: Dog pharmacokinetics after IA injection (plasma, cartilage, bone, synovial fluid)
Assay type: in vivo, beagle dogs
TEST SETTINGS: dog; 3 μg/knee; Day 91
RECORDED METRIC: total amount recovered from cartilage and bone tissues from the tibia (ng)

# SMILES INPUT, EXPERIMENTAL RESULT
records = [
    ("CC(C)CC(=O)Nc1cncc(-c2ccc3[nH]nc(-c4nc5c(-c6cccc(F)c6)cncc5[nH]4)c3c2)c1", 16.6),
]

* * *

ASSAY OVERVIEW: Solubility of the starting solid by the gravimetric method
Type: physicochemical
TEST SETTINGS: organic solvent or mixture, thermodynamic from solid; EA; 50° C.; read-out: Solubility at 50° C.
RECORDED METRIC: solubility (µg/mL)

# SMILES INPUT, READING UNIT, EXPERIMENTAL RESULT
rows = [
    ("CC(C)CC(=O)Nc1cncc(-c2ccc3[nH]nc(-c4nc5c(-c6cccc(F)c6)cncc5[nH]4)c3c2)c1", "µg/mL", 1000),
]

* * *

ASSAY OVERVIEW: Dog pharmacokinetics after IA injection (plasma, cartilage, bone, synovial fluid)
Type: in vivo, beagle dogs
TEST SETTINGS: male, beagle, dog, cartilage, other: intra-articular; dogs, IA suspension, 30 μg/knee, Day 91; read-out: Compound of Formula (I) Concentration, Cartilage
RECORDED METRIC: concentration at 91 day (ng/g)

# SMILES INPUT, RECORDED METRIC, EXPERIMENTAL RESULT
rows = [
    ("CC(C)CC(=O)Nc1cncc(-c2ccc3[nH]nc(-c4nc5c(-c6cccc(F)c6)cncc5[nH]4)c3c2)c1", "concentration at 91 day", 2330),
]
